Below, each entry is listed with its recorded half-life at 0.01 mol/L.
Test: Stability in mouse plasma assessed as half life at 0.01 mol/L measured for 72 hrs by RP-HPLC analysis
Format: ADME, cell-free
measured-attribute: half-life at 0.01 mol/L (h)

smiles_input=NC(=O)[C@H]1CCCN1C(=O)[C@@H]1CC(=O)NCCCC[C@@H](NC(=O)[C@@H](N)Cc2ccc(O)cc2)C(=O)NCC(=O)N[C@@H](Cc2ccc3ccccc3c2)C(=O)N1 measured_attribute="half-life at 0.01 mol/L" reading_qualifier== value_reported=20.3
smiles_input=NC(=O)[C@@H]1CCCCN1C(=O)[C@H]1CC(=O)NCCCC[C@@H](NC(=O)[C@@H](N)Cc2ccc(O)cc2)C(=O)NCC(=O)N[C@@H](Cc2ccccc2)C(=O)N1 measured_attribute="half-life at 0.01 mol/L" reading_qualifier== value_reported=443
smiles_input=NC(=O)[C@H]1CCCN1C(=O)[C@@H]1CC(=O)NCCCC[C@@H](NC(=O)[C@@H](N)Cc2ccc(O)cc2)C(=O)NCC(=O)N[C@@H](Cc2ccccc2)C(=O)N1 measured_attribute="half-life at 0.01 mol/L" reading_qualifier== value_reported=41.9
smiles_input=CC1(C)NC(=O)[C@H](NC(=O)[C@@H](N)Cc2ccc(O)cc2)CCCCNC(=O)C[C@@H](C(=O)N2CCC[C@@H]2C(N)=O)NC(=O)[C@H](Cc2ccccc2)NC1=O measured_attribute="half-life at 0.01 mol/L" reading_qualifier=> value_reported=72
smiles_input=NC(=O)[C@H]1CCCN1C(=O)[C@@H]1CC(=O)NCCCC[C@@H](NC(=O)[C@@H](N)Cc2ccc(O)cc2)C(=O)NCC(=O)N[C@@H](Cc2ccc(F)cc2)C(=O)N1 measured_attribute="half-life at 0.01 mol/L" reading_qualifier== value_reported=53.5
smiles_input=N[C@@H](Cc1ccc(O)cc1)C(=O)N[C@@H]1CCCCNC(=O)C[C@H](C(=O)N2CCC[C@H]2C(=O)O)NC(=O)[C@H](Cc2ccccc2)NC(=O)CNC1=O measured_attribute="half-life at 0.01 mol/L" reading_qualifier== value_reported=23
smiles_input=C[C@H]1NC(=O)[C@H](NC(=O)[C@@H](N)Cc2ccc(O)cc2)CCCCNC(=O)C[C@H](C(=O)N2CCC[C@H]2C(N)=O)NC(=O)[C@H](Cc2ccccc2)NC1=O measured_attribute="half-life at 0.01 mol/L" reading_qualifier=> value_reported=72
smiles_input=CN1C(=O)CNC(=O)[C@H](NC(=O)[C@@H](N)Cc2ccc(O)cc2)CCCCNC(=O)C[C@@H](C(=O)N2CCC[C@@H]2C(N)=O)NC(=O)[C@@H]1Cc1ccccc1 measured_attribute="half-life at 0.01 mol/L" reading_qualifier== value_reported=21.1
